# targetUnderTest: S100A2 (Homo sapiens)
# methodNotes: ITC titration of TRTK12 peptides with S100A2
# runConditions: heat capacity change upon binding, slope of ΔHcal vs temperature
quantityName: ΔCp, exp (kJ·mol^−1·K^−1)

| molecule | quantityName | measurementUnit | endpointResult |
| --- | --- | --- | --- |
| CC[C@H](C)[C@H](NC(=O)[C@H](CCCCN)NC(=O)[C@H](CC(N)=O)NC(=O)[C@H](Cc1c[nH]c2ccccc12)NC(=O)[C@H](CC(=O)O)NC(=O)[C@@H](NC(=O)[C@H](CCCCN)NC(=O)[C@@H](NC(=O)[C@H](CCCNC(=N)N)NC(=O)[C@H](C)NC(C)=O)[C@@H](C)O)[C@@H](C)CC)C(=O)N[C@@H](CC(C)C)C(=O)N[C@@H](CO)C(N)=O [TRTKM1] | ΔCp, exp | kJ·mol^−1·K^−1 | −0.8 |
| CC[C@H](C)[C@H](NC(=O)[C@H](C)NC(=O)[C@H](CC(N)=O)NC(=O)[C@H](Cc1c[nH]c2ccccc12)NC(=O)[C@H](CC(=O)O)NC(=O)[C@@H](NC(=O)[C@H](CCCCN)NC(=O)[C@@H](NC(=O)[C@H](CCCNC(=N)N)NC(=O)[C@@H](NC(C)=O)[C@@H](C)O)[C@@H](C)O)[C@@H](C)CC)C(=O)N[C@@H](CC(C)C)C(=O)N[C@@H](CO)C(N)=O [TRTKM9] | ΔCp, exp | kJ·mol^−1·K^−1 | −0.4 |
| CC[C@H](C)[C@H](NC(=O)[C@H](CCCCN)NC(=O)[C@H](CC(N)=O)NC(=O)[C@H](Cc1c[nH]c2ccccc12)NC(=O)[C@H](CC(=O)O)NC(=O)[C@@H](NC(=O)[C@H](CCCCN)NC(=O)[C@@H](NC(=O)[C@H](CCCNC(=N)N)NC(=O)[C@@H](NC(C)=O)[C@@H](C)O)[C@@H](C)O)[C@@H](C)CC)C(=O)N[C@@H](C)C(=O)N[C@@H](CO)C(N)=O [TRTKM11] | ΔCp, exp | kJ·mol^−1·K^−1 | −1.6 |

----------
# targetUnderTest: S100B (Homo sapiens)
# methodNotes: Acrylamide dynamic quenching of peptide Trp in S100B complex
# Format: binding
# runConditions: Stern-Volmer constant, saturating S100B, 5 mM CaCl2
quantityName: S100B+Peptide KSV (M⁻¹)

| structureNotation | targetUnderTest | endpointResult |
| --- | --- | --- |
| CC[C@H](C)[C@H](NC(=O)[C@H](CCCCN)NC(=O)[C@H](CC(N)=O)NC(=O)[C@H](Cc1c[nH]c2ccccc12)NC(=O)[C@H](CC(=O)O)NC(=O)[C@@H](NC(=O)[C@H](CCCCN)NC(=O)[C@@H](NC(=O)[C@H](CCCNC(=N)N)NC(=O)[C@@H](NC(C)=O)[C@@H](C)O)[C@@H](C)O)[C@@H](C)CC)C(=O)N[C@@H](C)C(=O)N[C@@H](CO)C(N)=O | S100B (Homo sapiens) | 7.2 |
| CC[C@H](C)[C@H](NC(=O)[C@H](C)NC(=O)[C@H](CC(N)=O)NC(=O)[C@H](Cc1c[nH]c2ccccc12)NC(=O)[C@H](CC(=O)O)NC(=O)[C@@H](NC(=O)[C@H](CCCCN)NC(=O)[C@@H](NC(=O)[C@H](CCCNC(=N)N)NC(=O)[C@@H](NC(C)=O)[C@@H](C)O)[C@@H](C)O)[C@@H](C)CC)C(=O)N[C@@H](CC(C)C)C(=O)N[C@@H](CO)C(N)=O | S100B (Homo sapiens) | 7.2 |
| CC[C@H](C)[C@H](NC(=O)[C@H](CCCCN)NC(=O)[C@H](CC(N)=O)NC(=O)[C@H](Cc1c[nH]c2ccccc12)NC(=O)[C@H](CC(=O)O)NC(=O)[C@@H](NC(=O)[C@H](CCCCN)NC(=O)[C@@H](NC(=O)[C@H](CCCNC(=N)N)NC(=O)[C@H](C)NC(C)=O)[C@@H](C)O)[C@@H](C)CC)C(=O)N[C@@H](CC(C)C)C(=O)N[C@@H](CO)C(N)=O | S100B (Homo sapiens) | 2.4 |

----------
# targetUnderTest: S100A2 (Homo sapiens, UniProt P29034)
# Sequence (P29034 whole entry): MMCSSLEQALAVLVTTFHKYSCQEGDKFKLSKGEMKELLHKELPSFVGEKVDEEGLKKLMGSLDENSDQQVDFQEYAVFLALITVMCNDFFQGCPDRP
# methodNotes: ITC titration of TRTK12 peptides with S100A2
# runConditions: heat capacity change upon binding, slope of ΔHcal vs temperature
Reported values of ΔCp, exp for individual entries

| structureNotation | measurementUnit | ΔCp, exp |
| --- | --- | --- |
| CC[C@H](C)[C@H](NC(=O)[C@H](CCCCN)NC(=O)[C@@H](NC(=O)[C@H](CCCNC(=N)N)NC(=O)[C@@H](NC(C)=O)[C@@H](C)O)[C@@H](C)O)C(=O)N[C@@H](C)C(=O)N[C@@H](Cc1c[nH]c2ccccc12)C(=O)N[C@@H](CC(N)=O)C(=O)N[C@@H](CCCCN)C(=O)N[C@H](C(=O)N[C@@H](CC(C)C)C(=O)N[C@@H](CO)C(N)=O)[C@@H](C)CC | kJ·mol^−1·K^−1 | −0.7 |
| CC[C@H](C)[C@H](NC(=O)[C@H](CCCCN)NC(=O)[C@H](CC(N)=O)NC(=O)[C@H](Cc1c[nH]c2ccccc12)NC(=O)[C@H](CC(=O)O)NC(=O)[C@H](C)NC(=O)[C@H](CCCCN)NC(=O)[C@@H](NC(=O)[C@H](CCCNC(=N)N)NC(=O)[C@@H](NC(C)=O)[C@@H](C)O)[C@@H](C)O)C(=O)N[C@@H](CC(C)C)C(=O)N[C@@H](CO)C(N)=O | kJ·mol^−1·K^−1 | −0.9 |

----------
Reported S100B+Peptide KSV is given for each of the following compounds.
# targetUnderTest: S100B (Homo sapiens, UniProt P04271)
# Sequence (P04271 2-92 limits assumed): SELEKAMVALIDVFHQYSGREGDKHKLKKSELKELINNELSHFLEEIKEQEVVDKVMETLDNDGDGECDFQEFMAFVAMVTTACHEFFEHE
# methodNotes: Acrylamide dynamic quenching of peptide Trp in S100B complex
# Type: binding
# runConditions: Stern-Volmer constant, saturating S100B, 5 mM CaCl2

| structureNotation | S100B+Peptide KSV / M⁻¹ |
| --- | --- |
| CC[C@H](C)[C@H](NC(=O)[C@H](CCCCN)NC(=O)[C@@H](NC(=O)[C@H](CCCNC(=N)N)NC(=O)[C@@H](NC(C)=O)[C@@H](C)O)[C@@H](C)O)C(=O)N[C@@H](CC(=O)O)C(=O)N[C@@H](Cc1c[nH]c2ccccc12)C(=O)N[C@@H](CC(N)=O)C(=O)N[C@@H](CCCCN)C(=O)N[C@@H](C)C(=O)N[C@@H](CC(C)C)C(=O)N[C@@H](CO)C(N)=O | 7.5 |
| CC[C@H](C)[C@H](NC(=O)[C@H](CCCCN)NC(=O)[C@H](CC(N)=O)NC(=O)[C@H](Cc1c[nH]c2ccccc12)NC(=O)[C@H](CC(=O)O)NC(=O)[C@H](C)NC(=O)[C@H](CCCCN)NC(=O)[C@@H](NC(=O)[C@H](CCCNC(=N)N)NC(=O)[C@@H](NC(C)=O)[C@@H](C)O)[C@@H](C)O)C(=O)N[C@@H](CC(C)C)C(=O)N[C@@H](CO)C(N)=O | 2.8 |

----------
# targetUnderTest: S100P (Homo sapiens)
# Sequence (P25815 1-95): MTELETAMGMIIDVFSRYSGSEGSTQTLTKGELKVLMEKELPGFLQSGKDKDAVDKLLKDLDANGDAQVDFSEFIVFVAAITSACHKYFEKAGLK
# methodNotes: ITC titration of TRTK12 peptides with S100P
# Format: binding
# runConditions: heat capacity change upon binding; slope of ΔHcal vs temperature, ITC
Listed here: items and their measured ΔCp, exp.

| structureNotation | targetUnderTest | ΔCp, exp [kJ·mol^−1·K^−1] |
| --- | --- | --- |
| CC[C@H](C)[C@H](NC(=O)[C@H](CCCCN)NC(=O)[C@H](CC(N)=O)NC(=O)[C@H](Cc1c[nH]c2ccccc12)NC(=O)[C@H](CC(=O)O)NC(=O)[C@@H](NC(=O)[C@H](CCCCN)NC(=O)[C@@H](NC(=O)[C@H](CCCNC(=N)N)NC(=O)[C@@H](NC(C)=O)[C@@H](C)O)[C@@H](C)O)[C@@H](C)CC)C(=O)N[C@@H](C)C(=O)N[C@@H](CO)C(N)=O | S100P (Homo sapiens) | −1.8 |
| CC[C@H](C)[C@H](NC(=O)[C@H](CCCCN)NC(=O)[C@@H](NC(=O)[C@H](CCCNC(=N)N)NC(=O)[C@@H](NC(C)=O)[C@@H](C)O)[C@@H](C)O)C(=O)N[C@@H](C)C(=O)N[C@@H](Cc1c[nH]c2ccccc12)C(=O)N[C@@H](CC(N)=O)C(=O)N[C@@H](CCCCN)C(=O)N[C@H](C(=O)N[C@@H](CC(C)C)C(=O)N[C@@H](CO)C(N)=O)[C@@H](C)CC | S100P (Homo sapiens) | −0.9 |
| CC[C@H](C)[C@H](NC(=O)[C@H](CCCCN)NC(=O)[C@H](CC(N)=O)NC(=O)[C@H](Cc1c[nH]c2ccccc12)NC(=O)[C@H](CC(=O)O)NC(=O)[C@@H](NC(=O)[C@H](CCCCN)NC(=O)[C@@H](NC(=O)[C@H](CCCNC(=N)N)NC(=O)[C@H](C)NC(C)=O)[C@@H](C)O)[C@@H](C)CC)C(=O)N[C@@H](CC(C)C)C(=O)N[C@@H](CO)C(N)=O | S100P (Homo sapiens) | −0.9 |
| CC[C@H](C)[C@H](NC(=O)[C@H](CCCCN)NC(=O)[C@H](CC(N)=O)NC(=O)[C@H](Cc1c[nH]c2ccccc12)NC(=O)[C@H](CC(=O)O)NC(=O)[C@H](C)NC(=O)[C@H](CCCCN)NC(=O)[C@@H](NC(=O)[C@H](CCCNC(=N)N)NC(=O)[C@@H](NC(C)=O)[C@@H](C)O)[C@@H](C)O)C(=O)N[C@@H](CC(C)C)C(=O)N[C@@H](CO)C(N)=O | S100P (Homo sapiens) | −1.2 |
| CC[C@H](C)[C@H](NC(=O)[C@H](CCCCN)NC(=O)[C@@H](NC(=O)[C@H](CCCNC(=N)N)NC(=O)[C@@H](NC(C)=O)[C@@H](C)O)[C@@H](C)O)C(=O)N[C@@H](CC(=O)O)C(=O)N[C@@H](Cc1c[nH]c2ccccc12)C(=O)N[C@@H](CC(N)=O)C(=O)N[C@@H](CCCCN)C(=O)N[C@@H](C)C(=O)N[C@@H](CC(C)C)C(=O)N[C@@H](CO)C(N)=O | S100P (Homo sapiens) | −1.3 |
| CC[C@H](C)[C@H](NC(=O)[C@H](C)NC(=O)[C@H](CC(N)=O)NC(=O)[C@H](Cc1c[nH]c2ccccc12)NC(=O)[C@H](CC(=O)O)NC(=O)[C@@H](NC(=O)[C@H](CCCCN)NC(=O)[C@@H](NC(=O)[C@H](CCCNC(=N)N)NC(=O)[C@@H](NC(C)=O)[C@@H](C)O)[C@@H](C)O)[C@@H](C)CC)C(=O)N[C@@H](CC(C)C)C(=O)N[C@@H](CO)C(N)=O | S100P (Homo sapiens) | −1.0 |
